- STUDY TARGET: T1, FAM19A5 mutant M7 (human)
- T1 chain: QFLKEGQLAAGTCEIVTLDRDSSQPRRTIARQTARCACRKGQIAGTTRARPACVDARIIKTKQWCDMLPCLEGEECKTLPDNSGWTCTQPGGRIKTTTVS
- PROTOCOL SUMMARY: ELISA on phage-expressed FAM19A5 mutants M1-M8
MEASUREMENT TYPE: binding result

• Anti-FAM19A5 antibody 2-13 (antibody, V domains shown, also called clone 2-13) VH: AVTLDESGGGLQTPGGALSLVCKASGFTFSSHGMFWVRQTPGKGLEYVAEITNDGSGTNYGSAVKGRATISRDNGQSTVRLQLNNLRAEDTGTYFCARSTYECPGGFSCWGDTGQIDAWGHGTEVIVSS VL: ALTQPSSVSANPGETVKITCSGGSYSYGWFQQKSPGSALVTVIYWDDERPSDIPSRFSGALSGSTNTLTITGVQADDEAVYFCGTEDISGTAGVFGAGTTLTVL = binds
• Anti-FAM19A5 antibody 13F7 (antibody, V domains shown) VH: QVQLQEWGAGLLKPSETLSLTCAINAESFNGYSWTWIRQTPGKGLEWIGEISHFGSANYNPSLKSRATISADKSKNQFSLKLTSVTAVDTAVYYCARALRGTYSRFYYGMDVWGQGTTVTVSS VL: DIVMTQTPLSLPVAPGEPASISCRSSQSLLHSNGYNYLDWYVQKPGQPPQLLIYLGSNRASGVPDRFSGSGSGTDFTLKISRVEAEDVGVYYCMQARQTPLTFGGGTKVEIK = binds
• Anti-FAM19A5 antibody 13B4 (antibody, V domains shown) VH: QVQLQESGPGLVKPSGTLSLNCAVSGGSISSSNWWSWVRQPPGKGLEWIGEIYHGGTTNYNPSLKGRVTMSVDKTKNQFSLRLSSVTAVDTAVYYCARWQLVGGLDVWGQGTTVTVSS VL: SYELTQPLSVSVSPGQTASITCSGDKLGNVYASWYQQKPGQSPTLVIYQDNKRPSGIPERFSGSNSGKTATLTISGTQALDEADYYCQAWDSSTAVFGGGTKLTVL = binds
